# System: U2932 TK216-resistant clone 2
# assayText: cell proliferation relative to vehicle (% of vehicle); higher = less growth inhibition
# experimentalConditions: 500 nM; 72 h
// cell proliferation lookup, one value per entry
Respond numerically, and do not add a unit to the figure.

In [3]: df
Out[3]:
                                   molecule                  subjectoftest        endpointname  quantitativeresult
0  COc1cc(CCc2cc(NC(=O)c3ccc(N4CC(C)NC(C)C4)cc3)n[nH]2)cc(OC)c1 (centres undefined)  U2932 TK216-resistant clone 2  cell proliferation                 101
1  CCOc1ccc(Cc2cc([C@@H]3O[C@H](CO)[C@@H](O)[C@H](O)[C@H]3O)ccc2Cl)cc1  U2932 TK216-resistant clone 2  cell proliferation                 103
2          O=C(/C=C/c1ccc2ccccc2n1)c1ccncc1  U2932 TK216-resistant clone 2  cell proliferation                83.1
3  O=c1cc(-c2cccc3c2Sc2ccccc2S3)oc(N2CCOCC2)c1  U2932 TK216-resistant clone 2  cell proliferation                 102
4  Nc1nccc2c1ncn2C1C=C(CO)C(O)C1O (centres undefined)  U2932 TK216-resistant clone 2  cell proliferation                86.2
5  Cc1cc(CS(=O)(=O)c2ccccc2)cc(OCc2ccc(CN3CCC[C@@H]3CO)cc2)c1  U2932 TK216-resistant clone 2  cell proliferation                90.6
6  CC(C)n1c(/C=C/C(O)CC(O)CC(=O)O)c(-c2ccc(F)cc2)c2ccccc21 (centres undefined) [Fluvastatin Sodium]  U2932 TK216-resistant clone 2  cell proliferation                89.5
7  C/C(=C\C(=O)Nc1ccccc1C(=O)O)c1ccc2ccccc2c1  U2932 TK216-resistant clone 2  cell proliferation                98.2

// switching to the query molecule
stdin: Any idea what its cell proliferation is? The molecule is C[S+]([O-])c1ccc(-c2nc(-c3ccc(F)cc3)c(-c3ccncc3)[nH]2)cc1 (centres undefined)
stdout: 101

* * *

# Tested on: U2932 TK216-resistant clone 2
# assayText: cell proliferation relative to vehicle (% of vehicle); higher = less growth inhibition
# experimentalConditions: 50 nM; 72 h
endpointName: cell proliferation
Respond numerically, and do not add a unit to the figure.

Answered examples (3):
In [3]: df
Out[3]:
                                   compound                  subjectoftest        endpointname  quantitativeresult
0  CC(C)(C)c1cc(NC(=O)Nc2ccc(-c3cn4c(n3)sc3cc(OCCN5CCOCC5)ccc34)cc2)no1 [Quizartinib (AC220)]  U2932 TK216-resistant clone 2  cell proliferation                95.7
1  O=C1CCC(N2C(=O)c3ccccc3C2=O)C(=O)N1 (configuration not stated) [Thalidomide]  U2932 TK216-resistant clone 2  cell proliferation                 105
2  Cc1cc(NC(=O)c2cccc(NC(=O)/C=C/CN(C)C)c2)ccc1Nc1nccc(-c2cccnc2)n1  U2932 TK216-resistant clone 2  cell proliferation                99.5

stdin: Any idea what its cell proliferation is? The compound is Cc1nc(-c2ccc(OCC(C)C)c(C#N)c2)sc1C(=O)O [Febuxostat]
stdout: 101

stdin: Note, next up: C/C(=C\C(=O)Nc1ccccc1C(=O)O)c1ccc2ccccc2c1
stdout: 82.5

stdin: Note, next up: Cc1cc(CS(=O)(=O)c2ccccc2)cc(OCc2ccc(CN3CCC[C@@H]3CO)cc2)c1
stdout: 105

stdin: Note, next up: COc1cc2c(c(OC)c1OC)-c1c(cc3c(c1OC)OCO3)CC(C)C(C)C2 (configuration not stated) [Schisandrin B (Sch B)]
stdout: 99.1

stdin: Note, next up: Cc1ccc(NC(=O)c2ccc(CN3CCN(C)CC3)cc2)cc1Nc1nc(-c2cccnc2)cs1 [Masitinib (AB1010)]
stdout: 95.6

stdin: Note, next up: Nc1nc(F)nc2c1ncn2[C@@H]1O[C@H](CO)[C@@H](O)[C@@H]1O [Fludarabine]
stdout: 107

stdin: Note, next up: CCN(c1cc(-c2ccc(CN3CCOCC3)cc2)cc(C(=O)NCc2c(C)cc(C)[nH]c2=O)c1C)C1CCOCC1
stdout: 92.4

stdin: Note, next up: O=C(O)c1ccc(-c2c[nH]c3ncc(-c4ccccc4)cc23)cc1C1CCCC1
stdout: 107

stdin: Note, next up: CC(C)(C(=O)NCC(F)(F)C(F)(F)F)C(=O)N[C@@H]1C(=O)Nc2ccccc2-c2ccccc21
stdout: 105

stdin: Note, next up: CCOC(=O)c1[nH]c2cc(Cl)ccc2c1C(C(=O)NC(C)(C)C)N(C=O)Cc1ccc(Cl)cc1 (configuration not stated)
stdout: 106

Where do these numbers come from? They come from the supplement of paper PMC13172266.
